conditionDescription: in tert-butanol, 308.15 K
measurementLabel: solubility (mole fraction)

CC1(C)COP(=O)(O)OC1c1ccccc1Cl (stereo unspecified)
0.0281

====

conditionDescription: in methanol, 318.15 K
measurementLabel: solubility (mole fraction)

CC1(C)COP(=O)(O)OC1c1ccccc1Cl (stereo unspecified)
0.0125

FYI, the data here is from BigSolDB 2.1.
